# System: T1, human integrin α5β1 on cells (endogenous, HUVEC; tumor or endothelial-expressed) (human, UniProt P08648 42-1049; P05556 21-798)
# T1 construct: whole, on cells; also called cell surface integrin α5; endogenous α5β1
# T1 sequence (P08648 42-1049, chain 1 of 2): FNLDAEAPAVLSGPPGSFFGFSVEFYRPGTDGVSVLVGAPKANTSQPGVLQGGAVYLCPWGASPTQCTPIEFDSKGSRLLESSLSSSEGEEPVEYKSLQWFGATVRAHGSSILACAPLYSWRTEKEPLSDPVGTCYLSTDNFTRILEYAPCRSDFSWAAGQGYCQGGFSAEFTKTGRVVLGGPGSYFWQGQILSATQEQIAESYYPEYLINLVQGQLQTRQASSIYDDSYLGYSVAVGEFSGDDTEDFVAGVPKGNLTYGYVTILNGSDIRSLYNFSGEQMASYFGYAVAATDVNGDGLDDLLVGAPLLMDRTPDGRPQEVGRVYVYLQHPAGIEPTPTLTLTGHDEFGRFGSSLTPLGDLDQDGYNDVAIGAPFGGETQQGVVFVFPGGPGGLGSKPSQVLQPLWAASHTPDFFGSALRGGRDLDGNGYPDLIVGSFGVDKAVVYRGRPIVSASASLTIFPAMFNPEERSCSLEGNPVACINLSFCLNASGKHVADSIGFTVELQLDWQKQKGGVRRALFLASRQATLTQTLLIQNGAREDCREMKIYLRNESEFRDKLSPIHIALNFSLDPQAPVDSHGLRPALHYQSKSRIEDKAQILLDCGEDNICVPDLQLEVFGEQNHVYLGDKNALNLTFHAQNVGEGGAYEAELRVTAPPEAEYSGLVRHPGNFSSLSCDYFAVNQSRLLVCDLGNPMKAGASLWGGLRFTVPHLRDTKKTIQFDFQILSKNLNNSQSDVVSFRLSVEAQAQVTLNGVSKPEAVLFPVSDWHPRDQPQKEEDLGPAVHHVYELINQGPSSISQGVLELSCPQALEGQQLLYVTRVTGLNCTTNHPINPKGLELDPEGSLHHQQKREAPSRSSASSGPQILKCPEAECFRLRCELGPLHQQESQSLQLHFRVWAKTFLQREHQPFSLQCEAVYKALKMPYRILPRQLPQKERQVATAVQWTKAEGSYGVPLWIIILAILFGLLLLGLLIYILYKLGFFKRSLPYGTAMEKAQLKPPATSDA
# T1 sequence (P05556 21-798, chain 2 of 2): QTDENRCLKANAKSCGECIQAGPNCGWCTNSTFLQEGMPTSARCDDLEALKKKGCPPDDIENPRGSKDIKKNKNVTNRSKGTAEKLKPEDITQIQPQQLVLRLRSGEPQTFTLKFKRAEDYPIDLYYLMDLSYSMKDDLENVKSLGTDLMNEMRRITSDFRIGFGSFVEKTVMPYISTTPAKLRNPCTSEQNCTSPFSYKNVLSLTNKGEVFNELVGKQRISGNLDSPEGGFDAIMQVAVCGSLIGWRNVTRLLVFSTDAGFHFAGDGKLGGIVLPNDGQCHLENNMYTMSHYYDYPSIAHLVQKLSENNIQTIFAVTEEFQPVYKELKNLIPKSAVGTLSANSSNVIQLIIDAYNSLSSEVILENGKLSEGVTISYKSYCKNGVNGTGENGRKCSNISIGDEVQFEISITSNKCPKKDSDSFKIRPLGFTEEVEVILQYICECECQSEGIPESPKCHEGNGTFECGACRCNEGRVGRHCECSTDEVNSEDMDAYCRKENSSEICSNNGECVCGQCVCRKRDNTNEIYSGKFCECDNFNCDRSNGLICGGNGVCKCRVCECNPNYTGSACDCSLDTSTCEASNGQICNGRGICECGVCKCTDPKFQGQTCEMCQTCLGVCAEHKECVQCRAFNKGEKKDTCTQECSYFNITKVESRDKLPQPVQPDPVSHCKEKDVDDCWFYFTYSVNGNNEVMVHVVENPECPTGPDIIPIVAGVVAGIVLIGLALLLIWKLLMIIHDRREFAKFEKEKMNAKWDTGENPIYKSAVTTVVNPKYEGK
# Protocol summary: FACS on HUVEC (endogenous human α5β1), GeoMean against mAb concentration, fitted; experiment 030207
Listed next: entries and their corresponding Kd.
The reply should contain only the number, in nM.

Recorded Kd, per entry:
binder="1D9 (antibody, IgG1, V domains shown, also called 1D9 G1; I D9) VH: QVQLVESGGGVVQPGRSLRLSCAASGFPFSTYAMHWVRQAPGKGLEWVAVISYDGSNKYYADSVKGRFTISRDNSKNTLYLQMNSLRAEDTAVYYCARESPPIYYYYGMDVWGQGTTVTVSS VL: EIVLTQSPATLSLSPGERATLSCRASQSVSSYLAWYQQKPGQAPRLLIYDASNRATGIPARFSGSGSGTDFTLTISSLEPEDFAVYYCQQRSNWPRTFGQGTKVEIK" measured_attribute=Kd recorded_value=1.69
binder="1D9/DLE (antibody, V domains shown, also called 1D9 IgG1 DLE; 1D9 G1 DLE) VH: QVQLVESGGGVVQPGRSLRLSCAASGFPFSTYAMHWVRQAPGKGLEWVAVISYDGSNKYYADSVKGRFTISRDNSKNTLYLQMNSLRAEDTAVYYCARESPPIYYYYGMDVWGQGTTVTVSS VL: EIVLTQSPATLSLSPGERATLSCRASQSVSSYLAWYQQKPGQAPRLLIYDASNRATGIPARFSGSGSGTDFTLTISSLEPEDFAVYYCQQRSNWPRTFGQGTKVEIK" measured_attribute=Kd recorded_value=1.68
binder="22B5 wild type IgG1 (antibody, V domains shown, Human IgG1 with wild type Fc (no DLE mutations); also called 22B5 wt IgG1; wt 22B5 IgG1) VH: QLQLQESGPGLVKPSETLSLTCTVSGGSISSSSYWGWIRQPPGKGLEWIGSIYYSGRNYNNPSLKSRVTISVDTSKNQFSLKLSSVTAADTAVYYCARHYYGSGSSYYYYDLDVWGQGTTVTVSS VL: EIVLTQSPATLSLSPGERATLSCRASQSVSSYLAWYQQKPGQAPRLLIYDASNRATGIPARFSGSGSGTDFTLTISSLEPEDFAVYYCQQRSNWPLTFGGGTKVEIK" measured_attribute=Kd recorded_value=1.95

In: Quick check: Kd of 2D2/DLE (antibody, IgG1, V domains shown, Constant regions: see the note of 1D9/DLE; also called 2D2 IgG1 DLE) VH: QVQLVESGGGVVQPGRSLRLSCAASGFTFSSYAMHWVRQAPGKGLEWVAVISFDGSTKYYADSVKGRFTISRDNSKNTLDLQMNSLRAEDTALYYCAREYWGTYYYGTDVWGQGTTVIVSS VL: EIVLTQSPATLSLSPGERATLSCRASQSVNSYLAWYQQKPGQAPRLLIYDASNRATGIPARFSGSGSGTDFTLTISSLEPEDFAVYYCQQRSNWPRTFGQGTKVEIK ?
Out: 8.78
